Field: solubility kinetic. Provide a value for each of the compounds that follow.
conditions: buffer; pH 7.4; 200.0 µM
Give bare numbers, in µg/mL.

Here are 5 compounds together with their reported answers.
Cc1ccccc1Nc1ncc(C#N)c(N)n1; 31.6
Cc1cccc(C(=O)NCC(c2ccco2)N(C)C)c1 (configuration not stated); 36.9
Cc1ccc(C2CCN(C(=O)Nc3ccc(F)cc3)C2)cc1 (configuration not stated); 1.7
Br.Fc1ccc(CNCC2CCCO2)cc1 (configuration not stated); 39.1
Cn1c(N)c(-c2ccccc2)c2ccc([N+](=O)[O-])cc2c1=O; 1.1

Let's switch to this compound now.
Inquiry: Reported solubility kinetic, compound Cc1cnc(C(=O)NC2CCSc3ccccc32)cn1 (configuration not stated) : ____
Reply text: 26.2

---

conditions: buffer; pH 7.4; 200.0 µM
MEASURED PARAMETER: solubility kinetic (µg/mL)
Numbers only, in µg/mL.

Here are 3 compounds together with their reported answers.
CC(C)c1nc(SCC(=O)c2ccc(F)cc2)c2ccccc2n1; 1.7
COc1ccc(-c2nc(N)ncc2-c2ccccc2OC)c(O)c1; 23.3
CCOC(=O)c1cccc(N2C(=O)C3C4C=CC(CC4)C3C2=O)c1 (stereo not drawn); 3.7

Here are 8 compounds. What values of solubility kinetic were reported for them?
1. COc1ccccc1C(=O)NCC(=O)N1CC=C(c2ccccc2)CC1
2. Nc1ncnc(Nc2ccc(F)c(Cl)c2)n1
3. Oc1ccc2ccccc2c1CNc1ccccn1
4. Cc1ccc(Nc2nc(-c3cccnc3)cs2)cc1C
5. CC(=O)NC1CCN(CC(=O)Nc2nccs2)CC1
6. O=C(CN1CCCCC1)N1CCc2ccccc21
7. O=C(COc1ccccc1F)Nc1ccc2c(c1)CCC2
8. CCOc1cccc(C(=O)NC(=S)Nc2ccc3c(c2)OCCO3)c1

Reply text:
[4.5, 8.4, 9.4, 0.4, 40.5, 36.6, 4, 4]

---

settings: buffer; pH 7.4; 200.0 µM
MEASURED PARAMETER: solubility kinetic

COc1ccc(OC)c(C(O)c2nc3ccccc3n2C)c1 (configuration not stated); > 44.8 µg/mL
CCOC(=O)CCCC(=O)N1CCOCCOCCOCC1; > 47.6 µg/mL

Here are 4 compounds. What values of solubility kinetic were reported for them?
1. O=[N+]([O-])/C(C(=C(Cl)Cl)N1CCOCC1)=C1\NCCO1
2. O=C(CC(=O)Nc1ccccc1F)Nc1ccccc1F
3. O=C(O/N=C1\CCS(=O)(=O)c2sccc21)C1CC1
4. NC1=NC(=O)/C(=C\c2ccco2)S1

Reply text:
> 46.5 µg/mL
> 43.5 µg/mL
> 42.8 µg/mL
> 29.1 µg/mL

Inquiry: Reported solubility kinetic, compound COc1ccc(C2NC(=O)NC(C)=C2[N+](=O)[O-])cc1OC (configuration not stated) : ____
Reply text: > 44 µg/mL

---

settings: buffer; pH 7.4; 200.0 µM
MEASURED PARAMETER: solubility kinetic

Here are 5 compounds together with their reported answers.
O=C(Cc1ccccc1)NCC(=O)N1CCC1; > 34.8 µg/mL
O=c1c2ccccc2nc(Cc2ccccc2)n1-c1cccc(O)c1; 6 µg/mL
COc1ccc(NS(=O)(=O)c2ccc3c(c2)CCC(=O)N3)cc1O; > 52.3 µg/mL
CC1C2(C)OCC(C#N)(C(=N)O2)C1(C#N)C#N (centres undefined); > 34.5 µg/mL
O=[N+]([O-])c1cc([N+](=O)[O-])c2cc3ccccc3nc2c1; 0.2 µg/mL

Here are 2 compounds. What values of solubility kinetic were reported for them?
1. COc1ccc(Cl)cc1C(=O)NC(=S)Nc1nc(C)cc(C)n1
2. CC(=O)Nc1ccc(NC(=O)c2cccc(Oc3ccccc3)c2)cc1

Reply text:
1. 0.4 µg/mL
2. < 0.4 µg/mL

Here are 4 compounds. What values of solubility kinetic were reported for them?
1. COc1ccc(S(=O)(=O)N2CCCN(C)CC2)cc1.Cl
2. CCOC(=O)C(C)Sc1nc(N2CCOCC2)c2c(c1C#N)CC(C)(C)OC2 (centres undefined)
3. COc1cccc(C(=O)NC2CCNCC2)c1
4. O=c1[nH]c(/C=C/c2ccc(Br)cc2)nc2ccccc12

Reply text:
> 48.1 µg/mL
38.8 µg/mL
31.4 µg/mL
0.8 µg/mL

Here are 7 compounds. What values of solubility kinetic were reported for them?
1. COc1ccc(S(=O)(=O)N2CC(=O)Nc3ccccc32)cc1Cl
2. CC(C)Cc1ccc(C(C)C(=O)Nc2ccccc2O)cc1 (centres undefined)
3. Cc1cc(NC(=O)CN2C(=O)NC(CC(C)C)C2=O)no1 (centres undefined)
4. Cc1cc(Nc2ccc(C)c(Cl)c2)nc(N2CCOCC2)n1
5. Cc1ccsc1C(=O)NC1CCCCC1C (centres undefined)
6. Cc1ccccc1NC(=O)c1cccc(NC(=O)c2c(C(=O)O)cccc2[N+](=O)[O-])c1
7. Cc1sc2ncnc(SCC(=O)N(C(C)C)C(C)C)c2c1C

Reply text:
1: > 52.9 µg/mL; 2: 1.9 µg/mL; 3: > 44.1 µg/mL; 4: 7.6 µg/mL; 5: > 35.6 µg/mL; 6: 56.1 µg/mL; 7: 1.6 µg/mL
